experiment: Inhibition of HIV1 reverse transcriptase 184V mutant by heteropolymeric DNA polymerase assay; design: species or system Human immunodeficiency virus 1
pIC50: −log10 of the molar value.
MEASURED_METRIC: pIC50

COMPOUND: Nc1nc2c(ncn2[C@H]2CO[C@@H](COP(=O)(O)OP(=O)(O)OP(=O)(O)O)O2)c(=O)[nH]1
MEASURED_METRIC: pIC50
OBSERVED: 6.70

COMPOUND: Cc1cn([C@H]2CO[C@@H](COP(=O)(O)OP(=O)(O)OP(=O)(O)O)O2)c(=O)[nH]c1=O
MEASURED_METRIC: pIC50
OBSERVED: 6.74

COMPOUND: C[C@H](Cn1cnc2c(N)ncnc21)OCP(=O)(O)OP(=O)(O)OP(=O)(O)O
MEASURED_METRIC: pIC50
OBSERVED: 5.66

COMPOUND: Cc1cn([C@H]2C[C@H](N=[N+]=[N-])[C@@H](COP(=O)(O)OP(=O)(O)OP(=O)(O)O)O2)c(=O)[nH]c1=O [ZIDOVUDINE TRIPHOSPHATE]
MEASURED_METRIC: pIC50
OBSERVED: 6.60

COMPOUND: Nc1nc(=O)c2ncn([C@H]3C=C[C@@H](COP(=O)(O)OP(=O)(O)OP(=O)(O)O)C3)c2[nH]1 [CARBOVIR 5'-TRIPHOSPHATE, (-)-]
MEASURED_METRIC: pIC50
OBSERVED: 5.26

* * *

Quick list: pKi per entry.
assay: Inhibition of HIV1 reverse transcriptase 41L/67N/70R/215Y/219Q mutant in presence of 3.2 mM ATP by prA/odT assay; set-up: species or system Human immunodeficiency virus 1
pKi: −log10 of the molar value.

COMPOUND: Cc1cn([C@H]2C[C@H](N=[N+]=[N-])[C@@H](COP(=O)(O)OP(=O)(O)OP(=O)(O)O)O2)c(=O)[nH]c1=O [ZIDOVUDINE TRIPHOSPHATE]
pKi: 7.02
--
COMPOUND: Cc1cn([C@H]2CO[C@@H](COP(=O)(O)OP(=O)(O)OP(=O)(O)O)O2)c(=O)[nH]c1=O
pKi: 7.96

* * *

assay: Inhibition of HIV1 reverse transcriptase wild type HXB2(a) in presence of 1 uM dNTP by heteropolymeric DNA polymerase assay; parameters: species or system Human immunodeficiency virus 1
MEASURED_METRIC: IC50

COMPOUND: Cc1cn([C@H]2C[C@H](N=[N+]=[N-])[C@@H](COP(=O)(O)OP(=O)(O)OP(=O)(O)O)O2)c(=O)[nH]c1=O [ZIDOVUDINE TRIPHOSPHATE]
OBSERVED: 460 nM

COMPOUND: Cc1cn([C@H]2CO[C@@H](COP(=O)(O)OP(=O)(O)OP(=O)(O)O)O2)c(=O)[nH]c1=O
OBSERVED: 380 nM

COMPOUND: C[C@H](Cn1cnc2c(N)ncnc21)OCP(=O)(O)OP(=O)(O)OP(=O)(O)O
OBSERVED: 3300 nM

* * *

The entries below are paired with their reported IC50.
assay: Inhibition of HIV1 reverse transcriptase wild type HXB2(a) in presence of 5'-A12-(GTCA)5-3' by heteropolymeric DNA polymerase assay; design: species or system Human immunodeficiency virus 1

MOLECULE: Cc1cn([C@H]2CO[C@@H](COP(=O)(O)OP(=O)(O)OP(=O)(O)O)O2)c(=O)[nH]c1=O
IC50, µM: 0.38
--
MOLECULE: Cc1cn([C@H]2C[C@H](N=[N+]=[N-])[C@@H](COP(=O)(O)OP(=O)(O)OP(=O)(O)O)O2)c(=O)[nH]c1=O [ZIDOVUDINE TRIPHOSPHATE]
IC50, µM: 0.46
--
MOLECULE: C[C@H](Cn1cnc2c(N)ncnc21)OCP(=O)(O)OP(=O)(O)OP(=O)(O)O
IC50, µM: 3.3

Entry source: ChEMBL document CHEMBL1143844
